Test system: UO-31 renal
assay.comment: NCI tumour cell line growth inhibition, 48 h
Listing of entries alongside the reported TGI.

Below: 3 compounds and their reported TGI.
Noted TGI for CCOC(=O)c1cc(C2CCN(Cc3ccccc3)C2=O)c(C(=O)C(=[N+]=[N-])C(C)=O)[nH]1 (configuration not stated) , tested on UO-31 renal: > 100 µM

Noted TGI for O=C1CN2C(Cl)(Cl)C2(c2ccccc2)c2cc(Cl)ccc2N1CC(F)(F)F (configuration not stated) , tested on UO-31 renal: > 100 µM

Noted TGI for O=c1[nH]c(SCc2c(Cl)c(Cl)c(Cl)c(Cl)c2Cl)nc(=S)[nH]1 , tested on UO-31 renal: > 58.9 µM

# input for lookup
Noted TGI for O=C1NC(=O)C(C(c2ccc(Cl)cc2)C2C(=O)NC(=O)NC2=O)C(=O)N1 , tested on UO-31 renal: > 100 µM

* * *

Test system: UACC-62 melanoma
assay.comment: NCI tumour cell line growth inhibition, 48 h
experimental.endpoint: TGI

Below: 2 compounds and their reported TGI.
Noted TGI for COc1cc(C2CC(c3cc(C)ccc3C)=NN2c2ccc(S(=O)(=O)NC(=O)NCc3ccccc3)cc2)cc(OC)c1OC (stereo not given) , tested on UACC-62 melanoma: 4.48 µM

Noted TGI for COc1cccc(NC(=O)CC(=O)N2NC(C)C(N=Nc3cccc(C(=O)O)c3)C2=O)c1 (stereo not given) , tested on UACC-62 melanoma: > 100 µM

Further cases:
Noted TGI for C#CCOC(=O)C(N)CSSCC(N)C(=O)O (stereo not given) , tested on UACC-62 melanoma: > 100 µM

* * *

Listing of entries alongside the reported TGI.
Test system: KM12 colon
assay.comment: NCI tumour cell line growth inhibition, 48 h

Below: 5 compounds and their reported TGI.
Noted TGI for O=C(c1cccs1)c1c(C(F)(F)F)n([O-])c2ccc(F)cc2[n+]1=O , tested on KM12 colon: 0.35 µM

Noted TGI for CC(C)=CCc1c(C)cc2cc3c(c(O)c2c1O)C(O)=CC(=O)C3(CC=C(C)C)C/C=C(\C)CO (stereo not given) , tested on KM12 colon: 81.7 µM

Noted TGI for COc1cc2c3c(n(CCN(C)C)c(=O)c2cc1OC)-c1cc2c(cc1C3=O)OCO2 , tested on KM12 colon: > 60.2 µM

Noted TGI for C[C@]12C=CC(=O)C=C1CC[C@@H]1[C@@H]2C(=O)C[C@@]2(C)[C@H]1CC[C@]2(O)C(=O)CO , tested on KM12 colon: > 100 µM

Noted TGI for CCCC(=O)OC[n+]1cccc(-c2c(COC(=O)NC(C)C)c(COC(=O)NC(C)C)c3n2CCC3)c1 , tested on KM12 colon: > 100 µM

Further cases:
Noted TGI for O=C1Nc2ccccc2Nc2nc3cccccc-3c21 , tested on KM12 colon: > 100 µM

Noted TGI for COc1cc2cc[n+]3c4cc(OC)c(OC)cc4c(C)cc3c2cc1OC , tested on KM12 colon: > 100 µM

Noted TGI for Cc1nc2ccccc2c(=O)n1CC(=O)O , tested on KM12 colon: > 100 µM

Noted TGI for O=C1c2nn(-c3ccccc3)nc2C(c2ccccc2)N1c1ccccc1 (stereo not given) , tested on KM12 colon: > 100 µM

Noted TGI for COc1ccc(N[C@H](CS(=O)c2ccc(C)cc2)C(F)(F)C(F)(F)F)cc1 (stereo not given in full) , tested on KM12 colon: > 100 µM
